- EXPERIMENTAL_PROTOCOL: Solubility of the compound in PBS buffer at pH 7.4
- Format: physicochemical
RESULT_TYPE: solubility

INSERT INTO results (substance_smiles, result_type, value_observed) VALUES
  ('CCN(CC)CCOc1cc2ncnc(Nc3cc(OC)c(Cl)cc3Cl)c2cc1OC', 'solubility', '31 µM');

---

- EXPERIMENTAL_PROTOCOL: Lipophilicity, logD of compound at pH 7.4
- Assay type: physicochemical
- CONDITION_DESCRIPTION: buffer
RESULT_TYPE: logD

INSERT INTO results (substance_smiles, value_observed) VALUES
  ('CCN(CC)CCOc1cc2ncnc(Nc3cc(OC)c(Cl)cc3Cl)c2cc1OC', 0.88);

---

Below is a list of entries, each paired with its recorded pIC50 value.
- SYSTEM_TESTED: Nucleotide-binding oligomerization domain-containing protein 1 (Homo sapiens)
- Sequence (Q9Y239 whole entry, the tested form may be a part): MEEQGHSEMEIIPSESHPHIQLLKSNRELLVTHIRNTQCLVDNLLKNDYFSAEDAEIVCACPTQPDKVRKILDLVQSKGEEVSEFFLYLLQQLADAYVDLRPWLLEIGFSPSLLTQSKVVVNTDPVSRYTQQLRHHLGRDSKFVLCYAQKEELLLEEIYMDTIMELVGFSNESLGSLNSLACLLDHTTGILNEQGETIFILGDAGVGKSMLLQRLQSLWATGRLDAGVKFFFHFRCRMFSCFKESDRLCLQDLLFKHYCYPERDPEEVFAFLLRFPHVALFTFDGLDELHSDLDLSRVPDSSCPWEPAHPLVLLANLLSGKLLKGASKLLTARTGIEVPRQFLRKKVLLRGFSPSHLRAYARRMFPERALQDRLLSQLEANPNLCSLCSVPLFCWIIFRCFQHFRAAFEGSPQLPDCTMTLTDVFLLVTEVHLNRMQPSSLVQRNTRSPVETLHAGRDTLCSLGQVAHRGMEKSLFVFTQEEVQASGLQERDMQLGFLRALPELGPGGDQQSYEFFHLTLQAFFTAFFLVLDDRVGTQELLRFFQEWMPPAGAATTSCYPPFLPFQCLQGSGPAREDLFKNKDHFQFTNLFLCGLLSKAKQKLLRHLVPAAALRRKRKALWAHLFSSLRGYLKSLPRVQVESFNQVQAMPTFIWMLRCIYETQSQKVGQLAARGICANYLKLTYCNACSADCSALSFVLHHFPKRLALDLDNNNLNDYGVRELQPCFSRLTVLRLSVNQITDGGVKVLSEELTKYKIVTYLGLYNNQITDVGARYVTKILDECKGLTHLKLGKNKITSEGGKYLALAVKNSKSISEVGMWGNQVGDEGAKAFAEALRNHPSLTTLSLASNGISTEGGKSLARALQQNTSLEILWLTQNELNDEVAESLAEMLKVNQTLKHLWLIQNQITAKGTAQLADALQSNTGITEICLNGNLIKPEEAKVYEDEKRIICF
- EXPERIMENTAL_PROTOCOL: Inhibition of human NOD1 expressed in HEK-Blue hNOD1 cells coexpressing NF-kappaB-inducible SEAP reporter gene assessed as inhibition of NF-kappaB transcriptional activity by measuring decrease in SEAP activity preincubated for 30 mins followed by C12-iE-DAP addition and measured after 18 hrs by absorbance based spectrophotometric analysis
pIC50: −log10 of the molar value.
RESULT_TYPE: pIC50

INSERT INTO measurements (substance_smiles, system_tested, censoring_qualifier, value_observed) VALUES
  ('COc1cc2ncnc(Nc3ccc(F)c(Cl)c3)c2cc1OC', 'Nucleotide-binding oligomerization domain-containing protein 1 (Homo sapiens)', '=', 5.87),
  ('COc1cc2ncnc(Nc3cc(O)c(Cl)cc3Cl)c2cc1OC', 'Nucleotide-binding oligomerization domain-containing protein 1 (Homo sapiens)', '<', 5.00),
  ('CCN(CC)CCOc1cc2ncnc(Nc3cc(OC)c(Cl)cc3Cl)c2cc1OC', 'Nucleotide-binding oligomerization domain-containing protein 1 (Homo sapiens)', '=', 7.38),
  ('COc1cc2ncnc(Nc3n[nH]c(C)c3C)c2cc1OC', 'Nucleotide-binding oligomerization domain-containing protein 1 (Homo sapiens)', '<', 5.00),
  ('COc1cc2ncnc(Nc3ccc(Cl)cc3)c2cc1OC', 'Nucleotide-binding oligomerization domain-containing protein 1 (Homo sapiens)', '=', 6.55),
  ('COc1cc2ncnc(Nc3cccc(Cl)c3)c2cc1OC', 'Nucleotide-binding oligomerization domain-containing protein 1 (Homo sapiens)', '<', 5.00),
  ('COc1cc2ncnc(Nc3cccc(N)c3)c2cc1OC', 'Nucleotide-binding oligomerization domain-containing protein 1 (Homo sapiens)', '<', 5.00),
  ('COc1ccc(Cl)c(Nc2ncnc3cc(OC)c(OC)cc23)c1', 'Nucleotide-binding oligomerization domain-containing protein 1 (Homo sapiens)', '=', 6.16),
  ('COc1cc2ncnc(Nc3ccc(Cl)cc3Cl)c2cc1OC', 'Nucleotide-binding oligomerization domain-containing protein 1 (Homo sapiens)', '<', 5.00),
  ('COc1cc2ncnc(Nc3ccc(Cl)c(O)c3)c2cc1OC.Cl', 'Nucleotide-binding oligomerization domain-containing protein 1 (Homo sapiens)', '=', 7.48),
  ('COc1cc2ncnc(Nc3ccccc3)c2cc1OC', 'Nucleotide-binding oligomerization domain-containing protein 1 (Homo sapiens)', '<', 5.00),
  ('COc1cc2ncnc(Nc3ccc(Br)cc3F)c2cc1OC', 'Nucleotide-binding oligomerization domain-containing protein 1 (Homo sapiens)', '=', 6.26),
  ('COc1cc2ncnc(Nc3cccc(O)c3)c2cc1OC', 'Nucleotide-binding oligomerization domain-containing protein 1 (Homo sapiens)', '=', 6.80),
  ('COc1cc2ncnc(Nc3ccc(F)c(Cl)c3)c2cc1OCCCN1CCOCC1', 'Nucleotide-binding oligomerization domain-containing protein 1 (Homo sapiens)', '=', 6.22);
